Tested on: T1, human CD74 (human, UniProt P04233 1-296)
T1 sequence (looked up): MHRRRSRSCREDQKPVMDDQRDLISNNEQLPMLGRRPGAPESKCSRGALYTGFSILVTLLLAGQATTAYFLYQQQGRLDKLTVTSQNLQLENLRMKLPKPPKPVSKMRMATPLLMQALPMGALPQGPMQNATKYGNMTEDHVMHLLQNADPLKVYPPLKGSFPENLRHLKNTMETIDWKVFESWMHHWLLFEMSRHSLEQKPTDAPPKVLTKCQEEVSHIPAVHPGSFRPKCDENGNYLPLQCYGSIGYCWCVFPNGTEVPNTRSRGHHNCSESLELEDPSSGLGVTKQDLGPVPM
Method description: cell-based or functional assay
Property label: Emax, GILZ mRNA, HUT-78 cells

[[record]]
binder = "ADC 12-6 (anti-hCD74 (LL1) conjugated to Linker 3-4) (antibody, human IgG1, kappa, V domains shown, position 121 is para-azido phenylalanine (pAzF), conjugated to dexamethasone drug-linker 3-4) VH: QVQLQQSGSELKKPGASVKVSCKASGYTFTNYGVNWIKQAPGQGLQWMGWINPNTGEPTFDDDFKGRFAFSLDTSVSTAYLQISSLKADDTAVYFCSRSRGKNEAWFAYWGQGSLVTVSS VL: DIQLTQSPLSLPVTLGQPASISCRSSQSLVHRNGNTYLHWFQQRPGQSPRLLIYTVSNRFSGVPDRFSGSGSGTDFTLKISRVEAEDVGVYFCSQSSHVPPTFGAGTRLEIKR"
measured = 4.61

